Reference source for all entries: patent US9096591B2

- Test system: mice
- Assay comment: recognition test of new location of a known object (spatial memory)
- Format: in vivo
- Reported conditions: Dose of Compound 0.5 mg/kg
Property measured: Influence on memory in the test recognition new localization of known object

Some molecules with recorded Influence on memory in the test recognition new localization of known object:
# Molecule, Result
rows = [
    ("CN1CCc2c(c3cc(Cl)ccc3n2CCc2noc(-c3ccccc3)n2)C1", "+"),
    ("CN1CCc2c(c3ccccc3n2CCc2noc(-c3ccccc3)n2)C1", "−"),
    ("Cc1ccc2c(c1)c1c(n2CCc2noc(-c3ccccc3)n2)CCN(C)C1", "+"),
    ("Cc1ccc2c(c1)c1c(n2CCc2nc(-c3ccccc3)cs2)CCN(C)C1", "−"),
    ("CN1CCc2c(c3cc(F)ccc3n2CCc2noc(-c3ccccc3)n2)C1", "−"),
    ("COc1ccc2c(c1)c1c(n2CCc2noc(-c3ccccc3)n2)CCN(C)C1", "+"),
    ("CN1CCc2c(c3ccccc3n2CCc2nc(-c3ccccc3)cs2)C1", "−"),
]

If you can, please state the reported Influence on memory in the test recognition new localization of known object value of Cc1ccc2c(c1)c1c(n2CCc2ccc(C)nc2)CCN(C)C1 [Dimebon, dimebon, reference compound] .
−

---

- Measured on: human recombinant adrenergic α2A receptor (Homo sapiens)
- Construct: expressed in transfected cells; host or cells: insect Sf9 cells
- Sequence (P08913 whole entry): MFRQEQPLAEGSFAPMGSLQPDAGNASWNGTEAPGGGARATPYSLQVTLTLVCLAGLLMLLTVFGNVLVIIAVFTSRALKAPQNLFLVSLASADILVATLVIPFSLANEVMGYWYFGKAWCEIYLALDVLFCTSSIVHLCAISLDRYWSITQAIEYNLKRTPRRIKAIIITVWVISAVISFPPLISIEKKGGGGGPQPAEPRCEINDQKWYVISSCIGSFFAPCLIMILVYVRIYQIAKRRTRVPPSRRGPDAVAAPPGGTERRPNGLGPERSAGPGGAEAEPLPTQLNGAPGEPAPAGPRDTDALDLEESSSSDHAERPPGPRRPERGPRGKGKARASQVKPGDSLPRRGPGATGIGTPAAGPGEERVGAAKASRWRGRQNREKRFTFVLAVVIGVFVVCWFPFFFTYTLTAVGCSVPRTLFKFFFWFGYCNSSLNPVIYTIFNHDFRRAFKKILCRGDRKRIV
- Assay comment: Adrenergic α2A radioligand binding ([3H]MK-912)
- Set-up: concentration or dose not given beside the values
- Reported conditions: percent inhibition of specific binding
Property measured: Inhibition of ligand binding, Adren. alpha2A (%)
I only need the number, in %, no unit after it.

Reference set, count: 3
# Compound, Numeric readout
rows = [
    ("Cc1ccc2c(c1)c1c(n2CCc2cncnc2)CCN(C)C1 [Compound 387]", 12),
    ("CN1CCc2c(c3cc(F)ccc3n2CCc2ccc(Cl)cc2)C1 [Compound 249]", 97),
    ("CN1CCc2c(c3cc(I)ccc3n2CCc2ccccc2F)C1 [Compound 89]", 98),
]

Request - read-out Inhibition of ligand binding, Adren. alpha2A | tested on human recombinant adrenergic α2A receptor (Homo sapiens) | compound Cc1ccc2c(c1)c1c(n2CCc2ccc(C(C)C)nc2)CCN(C)C1 [Compound 360]
101

Recall the recorded Inhibition of ligand binding, Adren. alpha2A for CN1CCc2c(c3cc(Cl)ccc3n2CCc2ccccc2)C1 [Compound 36] with human recombinant adrenergic α2A receptor (Homo sapiens) and state it.
97

Enter reported Inhibition of ligand binding, Adren. alpha2A observed with human recombinant adrenergic α2A receptor (Homo sapiens) for CN1CCc2c(c3cc(Cl)ccc3n2CCc2cncc(C(F)(F)F)c2)C1 [Compound 426]
42

Please provide the recorded Inhibition of ligand binding, Adren. alpha2A for Cc1ncc(CCn2c3c(c4cc(C(C)C)ccc42)CN(C)CC3)cn1 [Compound 370] , tested on human recombinant adrenergic α2A receptor (Homo sapiens).
35

# returns recorded Inhibition of ligand binding, Adren. alpha2A (system: human recombinant adrenergic α2A receptor (Homo sapiens)) for CN1CCc2c(c3ccccc3n2CCc2ccccc2)C1 [Compound 2]
94

Give Inhibition of ligand binding, Adren. alpha2A (human recombinant adrenergic α2A receptor (Homo sapiens)) of the following compound: Cc1ccc2c(c1)c1c(n2CCc2ccc(C(F)(F)F)nc2)CCN(C)C1 [Compound 68]
94

Identify the measured Inhibition of ligand binding, Adren. alpha2A of CN1CCc2c(c3cc(Cl)c(F)cc3n2CCc2ccc(C(F)(F)F)nc2)C1 [Compound 343] for human recombinant adrenergic α2A receptor (Homo sapiens).
90
